Recorded measurements of EC50 (nM), cAMP expression assay, one per entry
Molecular target: mutated human GLP-2R (human) (UniProt O95838)
Sequence (O95838 other isoform, or with tags, fused parts or gaps, change not shown): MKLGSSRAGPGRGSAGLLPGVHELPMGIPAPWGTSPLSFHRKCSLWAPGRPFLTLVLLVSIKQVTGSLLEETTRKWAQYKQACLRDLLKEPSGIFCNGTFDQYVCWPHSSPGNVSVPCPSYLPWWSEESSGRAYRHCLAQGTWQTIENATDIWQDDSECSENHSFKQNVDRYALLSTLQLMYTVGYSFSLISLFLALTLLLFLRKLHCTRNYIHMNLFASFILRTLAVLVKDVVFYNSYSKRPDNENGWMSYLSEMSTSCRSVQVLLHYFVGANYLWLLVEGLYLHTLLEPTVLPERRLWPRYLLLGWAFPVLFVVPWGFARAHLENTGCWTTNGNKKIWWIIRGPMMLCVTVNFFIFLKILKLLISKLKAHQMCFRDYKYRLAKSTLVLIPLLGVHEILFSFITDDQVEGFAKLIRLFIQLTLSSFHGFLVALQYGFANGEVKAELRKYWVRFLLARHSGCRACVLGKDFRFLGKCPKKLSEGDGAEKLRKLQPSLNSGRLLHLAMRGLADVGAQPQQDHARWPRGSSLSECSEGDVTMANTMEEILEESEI
Experiment: cell-based or functional assay
Ends that are not written are not given here.
Kindly format the answer as number then unit.

Q) Query (binder): A2G GLP-2 mimetibody linker length variant, SEQ ID NO: 8 (Fc fusion, not shown: a dimerising Fc or GST, cysteine pairing not given here; also: mimetibody: followed by CH2-CH3 domains not given here) HGDGSFSDEMNTILDNLAARDFINWLIQTKITDGGGGSGGGGSGGGGSCPPCP ; field requested: EC50 (nM), cAMP expression assay
A) 12.7 nM

Q) Next binder: GLP-2 mimetibody Pro substitution variant, SEQ ID NO: 42 (Fc fusion, not shown: a dimerising Fc or GST) HGDGSFSDEMNTILDNLAARDFINWLIQTKITDGSGGGSGALVPVSSESKYGPPCPPCP
A) 3.6 nM

Q) Next binder: HGDGSFSDEMNTILDNLAARDFINWLIQTKITDGGGGSCPPCP (Fc fusion, not shown: a dimerising Fc or GST, cysteine pairing not given here; also: mimetibody: followed by CH2-CH3 domains not given here) [A2G GLP-2 mimetibody linker length variant, SEQ ID NO: 6]
A) 40 nM

Q) Next binder: GLP-2 mimetibody Pro substitution variant, SEQ ID NO: 44 (Fc fusion, not shown: a dimerising Fc or GST) HGDGSFSDEMNTILDNLAARDFINWLIQTKITDGSGGGSGALVAVSPESKYGPPCPPCP
A) 7.7 nM

Q) Next binder: A2G GLP-2 mimetibody linker length variant, SEQ ID NO: 10 (Fc fusion, not shown: a dimerising Fc or GST) HGDGSFSDEMNTILDNLAARDFINWLIQTKITDGGGGSGGGGSGGGGSGGGGSGGGGSCPPCP
A) 2.1 nM

Reference for the values: patent US20090117104A1
